- Tested on: A549
- EXPERIMENT_DESCRIPTION: Antiproliferative activity against human A549 cells by sulforhodamine B assay
- Assay type: functional
READOUT_NAME: GI50 (µM)
Your answer should be a plain number; it is taken to be in µM.

Could you tell me which GI50 is on file for C=C1[C@H]2C[C@@H]3C4N5C[C@]6(C)CCC[C@@]47[C@@H]6[C@@H]5C[C@]3([C@@H]1OC(=O)c1ccccc1)[C@H]7[C@H]2OC(=O)c1ccccc1 ?
8.4

I have this compound here, CC(=O)O[C@H]1C(=O)[C@@]2(C)[C@H]([C@H](OC(=O)c3ccccc3)[C@]3(O)C[C@H](OC(=O)[C@H](O)[C@@H](NC(=O)c4ccccc4)c4ccccc4)C(C)=C1C3(C)C)[C@]1(OC(C)=O)CO[C@@H]1C[C@@H]2O [PACLITAXEL] , and I need its recorded GI50.
0.0071

====

- EXPERIMENT_DESCRIPTION: Antiproliferative activity against multidrug-resistant P-gp expressing human KBVIN cells by sulforhodamine B assay
- Assay type: functional
READOUT_NAME: GI50

Given the molecule C=C1[C@H]2C[C@@H]3C4N5C[C@]6(C)CCC[C@@]47[C@@H]6[C@@H]5C[C@]3([C@@H]1OC(=O)c1ccc([N+](=O)[O-])cc1)[C@H]7[C@H]2O , what is its reported GI50?
> 20 µM

For CCN1C[C@]2(COC)[C@H](O)C[C@H](OC(C)=O)[C@]34C1[C@@](O)([C@@H](OC)[C@H]23)[C@@]1(O)C[C@H](OC)[C@H]2C[C@@H]4[C@@H]1[C@H]2O , what is its reported GI50?
> 20 µM

# lookup: GI50 of CCN1C[C@]2(COC)[C@H](O)C[C@H](OC(C)=O)[C@]34C1[C@@](O)([C@@H](OC)[C@H]23)[C@@]1(O)C[C@H](OC)[C@H]2C[C@@H]4[C@@H]1[C@H]2OC(C)=O
> 20 µM

GI50 for C=C1[C@H]2C[C@@H]3C4N5C[C@]6(C)CCC[C@@]47[C@@H]6[C@@]5(OC(=O)c4ccc([N+](=O)[O-])cc4)C[C@]3([C@@H]1OC(=O)c1ccc([N+](=O)[O-])cc1)[C@H]7[C@H]2O ?
> 20 µM

Recorded GI50 for C=C1[C@H]2C[C@@H]3C4N5C[C@]6(C)CCC[C@@]47[C@@H]6[C@@H]5C[C@]3([C@@H]1OC(=O)c1ccc([N+](=O)[O-])cc1)[C@H]7[C@H]2OC(=O)c1ccc([N+](=O)[O-])cc1 , please?
5.5 µM

====

- Tested on: A549
- EXPERIMENT_DESCRIPTION: Antiproliferative activity against human A549 cells by sulforhodamine B assay
- Type: functional
READOUT_NAME: GI50

# query: GI50 of entry CCN1C[C@]2(COC)CC[C@H](OC(=O)c3ccc([N+](=O)[O-])cc3)[C@]34C1[C@@](O)([C@@H](OC)[C@H]23)[C@@]1(O)C[C@H](OC)[C@H]2C[C@@H]4[C@@H]1[C@H]2OC(=O)c1ccc([N+](=O)[O-])cc1
> 20 µM

Name the recorded GI50 for CCN1C[C@]2(C)CC[C@H](OC)[C@@]34[C@@H]5C[C@H]6[C@H](O)[C@@H]5[C@@]5(C[C@@H]6OC)OCO[C@@]5(C(=O)[C@H]23)[C@@H]14 .
> 20 µM

GI50 for C=C1[C@H]2C[C@@H]3C4N5C[C@]6(C)CCC[C@@]47[C@@H]6[C@@H]5C[C@]3([C@@H]1O)[C@H]7[C@H]2OC(=O)c1ccc(C(F)(F)F)cc1 ?
10 µM

I'd like to know its GI50. The molecule in question is C=C1[C@H]2C[C@H]3C4N5C[C@]6(C)CCC[C@]47[C@H]([C@H]2O)C3(C[C@]5(OC(=O)c2ccccc2)[C@H]67)[C@@H]1O
> 20 µM

What value of measured GI50 is listed for C=C1[C@H]2C[C@H]3C4N5C[C@]6(C)CCC[C@]47[C@H]([C@H]2OC(=O)c2ccc(OC)cc2)C3(C[C@]5(O)[C@H]67)[C@@H]1O ?
10 µM

Given the entry CCN1C[C@]2(COC)[C@H](O)C[C@H](O)[C@]34C1[C@@](O)([C@@H](OC)[C@H]23)[C@@]1(O)C[C@H](OC)[C@H]2C[C@@H]4[C@@H]1[C@H]2O , report its measured GI50.
> 20 µM

What value of measured GI50 is listed for C=C1[C@H]2C[C@@H]3C4N(C(=O)/C=C/c5ccccc5)C[C@]5(C)CCC[C@@]46[C@@H]5C(=O)C[C@]3([C@@H]1O)[C@H]6[C@H]2O (stereo not given in full) ?
> 20 µM

Entry C=C1[C@H]2C[C@@H]3C4N5C[C@]6(C)CCC[C@@]47[C@@H]6[C@@]5(OC(=O)c4ccc([N+](=O)[O-])cc4)C[C@]3([C@@H]1O)[C@H]7[C@H]2O has what GI50?
> 20 µM

For the molecule shown here, CCN1C[C@]2(COC)CC[C@H](OC(=O)c3ccc(C(F)(F)F)cc3)[C@]34C1[C@@](O)([C@@H](OC)[C@H]23)[C@@]1(O)C[C@H](OC)[C@H]2C[C@@H]4[C@@H]1[C@H]2O , give the reported GI50.
> 20 µM

Could you tell me which GI50 is on file for CCN1C[C@]2(C)CC[C@H](OC)[C@@]34[C@@H]5C[C@H]6[C@H](OC)[C@@H]5[C@@]5(C[C@@H]6OC)OCO[C@@]5(C(=O)[C@H]23)[C@@H]14 ?
> 20 µM
